molecular target: AmpC from P. aeruginosa (Pseudomonas aeruginosa, UniProt P24735); construct: hexahistidine (pOPINF, 3C-cleavable) (N, cleaved yes); made in house; host or cells: E. coli BL21(DE3); test: FC5 fluorogenic β-lactamase inhibition assay, AmpC; assay type: biochemical; conditions: IC50, nM (mean ± SD) for AmpC, preincubation 30 min; FC5 substrate
Sequence (P24735 27-397): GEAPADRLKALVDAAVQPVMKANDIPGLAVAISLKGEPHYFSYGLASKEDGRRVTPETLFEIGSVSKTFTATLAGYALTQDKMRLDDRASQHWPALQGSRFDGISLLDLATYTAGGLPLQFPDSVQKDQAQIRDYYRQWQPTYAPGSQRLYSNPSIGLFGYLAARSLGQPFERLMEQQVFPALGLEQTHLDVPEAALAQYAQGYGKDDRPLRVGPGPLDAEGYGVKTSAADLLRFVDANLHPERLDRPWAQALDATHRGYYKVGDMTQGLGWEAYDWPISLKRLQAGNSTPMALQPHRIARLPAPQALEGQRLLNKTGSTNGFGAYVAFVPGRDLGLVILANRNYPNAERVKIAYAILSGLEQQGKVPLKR
quantity.kind: IC50 (nM)
// note: answer is a bare numeric in nM

// IC50 value for CC1(C)[C@H](C(=O)O)N2C(=O)C[C@H]2S1(=O)=O : 8600

###

molecular target: OXA-48 (Klebsiella pneumoniae); construct: hexahistidine (pOPINF, 3C-cleavable) (N, cleaved yes); made in house; host or cells: E. coli BL21(DE3); test: FC5 fluorogenic β-lactamase inhibition assay, OXA-48; assay type: biochemical; conditions: read-out: IC50, nM (mean ± SD) for OXA-48; preincubation 30 min; FC5 substrate
Sequence (Q6XEC0 23-265 limits assumed): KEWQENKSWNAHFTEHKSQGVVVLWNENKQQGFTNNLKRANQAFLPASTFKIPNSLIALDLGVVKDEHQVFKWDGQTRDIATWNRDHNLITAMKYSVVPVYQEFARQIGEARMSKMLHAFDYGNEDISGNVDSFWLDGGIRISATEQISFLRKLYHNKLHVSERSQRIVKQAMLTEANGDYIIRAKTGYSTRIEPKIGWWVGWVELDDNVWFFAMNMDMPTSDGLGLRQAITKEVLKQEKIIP
quantity.kind: IC50

Record summary for CC1(C)[C@H](C(=O)O)N2C(=O)C[C@H]2S1(=O)=O [Sulbactam, sulbactam] : reported IC50 = > 200000 nM

###

molecular target: BcII (Bacillus cereus, UniProt P04190); assay: FC5 fluorogenic metallo-β-lactamase inhibition assay, BcII; type: biochemical; conditions: pH 6.5; preincubation 60 min; FC5 substrate; read-out: IC50, μM (mean ± SD) for BcII, pH 6.5
Sequence (P04190 31-257): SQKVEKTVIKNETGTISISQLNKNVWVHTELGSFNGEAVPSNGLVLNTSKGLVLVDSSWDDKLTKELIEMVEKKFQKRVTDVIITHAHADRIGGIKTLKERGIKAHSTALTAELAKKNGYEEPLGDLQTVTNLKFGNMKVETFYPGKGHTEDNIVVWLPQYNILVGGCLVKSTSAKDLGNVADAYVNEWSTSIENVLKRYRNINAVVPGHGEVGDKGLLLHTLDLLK
quantity.kind: IC50 (µM)
// units = µM; emit number, no label

Entry O=C(O)C(S)c1ccccc1 (racemic) [(±)-Thiomandelic acid, thiomandelic acid] ; IC50 = 2

###

molecular target: BcII (Bacillus cereus, UniProt P04190); experiment: FC5 fluorogenic metallo-β-lactamase inhibition assay, BcII; format: biochemical; conditions: pH 7.5; preincubation 360 min; FC5 substrate; read-out: IC50, μM (mean ± SD) for BcII, pH 7.5
quantity.kind: IC50 (µM)
Write down the numeric answer in µM and omit the unit.

Lookup result for O=C(O)C(S)c1ccccc1 (racemic) [(±)-Thiomandelic acid, thiomandelic acid] ; measured IC50: 2

###

target: OXA-48 (Klebsiella pneumoniae); construct: hexahistidine (pOPINF, 3C-cleavable) (N, cleaved yes); made in house; host or cells: E. coli BL21(DE3); test: FC5 fluorogenic β-lactamase inhibition assay, OXA-48; assay type: biochemical; settings: read-out: IC50, nM (mean ± SD) for OXA-48; preincubation 360 min; FC5 substrate
quantity.kind: IC50

Summary for this compound, CC1(C)[C@H](C(=O)O)N2C(=O)C[C@H]2S1(=O)=O : IC50 is > 200000 nM

###

target: CTX-M-15 (Escherichia coli, UniProt Q9EXV5); construct: hexahistidine (pOPINF, 3C-cleavable) (N, cleaved yes); made in house; host or cells: E. coli BL21(DE3); experiment: FC5 fluorogenic β-lactamase inhibition assay, CTX-M-15; assay type: biochemical; conditions: preincubation 0 min; FC5 substrate; read-out: IC50, nM (mean ± SD) for CTX-M-15
Sequence (Q9EXV5 entry or part of it): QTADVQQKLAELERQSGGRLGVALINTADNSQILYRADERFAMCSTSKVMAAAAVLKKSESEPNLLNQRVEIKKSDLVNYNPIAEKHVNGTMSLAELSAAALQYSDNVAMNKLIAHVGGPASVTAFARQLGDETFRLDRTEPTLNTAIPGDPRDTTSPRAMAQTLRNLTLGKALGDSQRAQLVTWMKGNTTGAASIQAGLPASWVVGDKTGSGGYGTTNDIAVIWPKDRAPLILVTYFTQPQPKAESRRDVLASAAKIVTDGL
quantity.kind: IC50 (nM)
Write the value in nM as a bare number.

Item NC(=O)[C@@H]1CC[C@@H]2CN1C(=O)N2OS(=O)(=O)O was tested on CTX-M-15 (Escherichia coli, UniProt Q9EXV5); the reported IC50 is 9.9

###

Biological target: UniProt:P04190
Experiment: FC5 fluorogenic metallo-β-lactamase inhibition assay, BcII
Type: biochemical
Details: pH 7.5; preincubation 10 min; FC5 substrate; read-out: IC50, μM (mean ± SD) for BcII, pH 7.5
Method: To investigate the extent to which cyclic boronates inhibit class C β-lactamases as well as the important class A ESBL and class D carbapenemase targets, we used a fluorogenic assay ([22]) to screen the cyclic boronates, which we have found to inhibit other β-lactamases ([21]), against them. […] Inhibition assays were carried out using FC5 as a fluorogenic reporter substrate ([22]). […] Residual enzyme activity was determined for a range of inhibitor concentrations. […]
quantity.kind: IC50 (µM)
Provide the reading as a plain figure in µM.

Form: compound = O=C(O)C(S)c1ccccc1 (racemic) [(±)-Thiomandelic acid, thiomandelic acid] ; IC50 = 0.39

Source: paper PMC5365654
